Taken from patent US10040781B2.

List of IC50 values.
Target: TBK1 (Homo sapiens (Human))
Experiment: TBK1 TR-FRET enzymatic assay
Express the result in nM but write the number alone.

Some molecules with known IC50 results, for comparison:
N#Cc1cc(-c2ncnc(Nc3ccc(Cn4ccnc4)cc3)n2)ccc1OC1CCOCC1 : 5
CC1(C)CN(C(=O)CO)C[C@H](F)[C@@H]1Oc1ccc(-c2ncnc(Nc3ccc(N4CCN(C5COC5)CC4)cc3)n2)cc1C#N (single isomer, unassigned) : 2

// moving on: another record for IC50
Input line: Find the measured IC50 of C[C@@H](O)C(=O)N1CC[C@H](Oc2ccc(-c3ncnc(Nc4ccc(N5CCN(C6COC6)CC5)cc4)n3)cc2C#N)C(F)(F)C1 (single isomer, unassigned) with TBK1 (Homo sapiens (Human)) as test system.
Output line: 1

====

Target: IKKε (Homo sapiens (Human))
Sequence (Q14164 whole entry): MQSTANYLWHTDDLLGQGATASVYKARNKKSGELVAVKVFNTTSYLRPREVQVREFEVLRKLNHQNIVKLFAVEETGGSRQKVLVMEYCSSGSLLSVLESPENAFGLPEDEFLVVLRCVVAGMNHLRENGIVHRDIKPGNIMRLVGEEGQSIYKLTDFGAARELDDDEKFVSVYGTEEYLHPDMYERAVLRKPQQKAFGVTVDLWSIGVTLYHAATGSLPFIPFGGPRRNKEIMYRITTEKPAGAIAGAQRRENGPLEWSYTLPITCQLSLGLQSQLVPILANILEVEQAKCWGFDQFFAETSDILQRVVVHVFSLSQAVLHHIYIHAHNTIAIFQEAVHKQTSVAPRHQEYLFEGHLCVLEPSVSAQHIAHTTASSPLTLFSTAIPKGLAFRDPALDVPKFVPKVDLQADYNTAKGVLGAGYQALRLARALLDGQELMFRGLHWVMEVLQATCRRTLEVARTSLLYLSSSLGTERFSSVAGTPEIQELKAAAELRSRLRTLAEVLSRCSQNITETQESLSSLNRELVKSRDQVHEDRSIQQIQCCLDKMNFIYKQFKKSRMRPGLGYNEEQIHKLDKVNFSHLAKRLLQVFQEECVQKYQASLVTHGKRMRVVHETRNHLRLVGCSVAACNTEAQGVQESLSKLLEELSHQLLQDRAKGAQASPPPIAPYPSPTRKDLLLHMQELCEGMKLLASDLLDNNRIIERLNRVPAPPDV
Test: IKKε TR-FRET enzymatic assay
Format: biochemical
Conditions: read-out: IKKe IC50
Please use the following IC50 ranges when assigning a class: c1 (below 3 nM), c2 (3 nM to below 10 nM), c3 (10 nM or more)

COc1cc(Nc2ncnc(-c3ccc(OC4CCOCC4)c(C#N)c3)n2)cc(OC)c1OC : c1

Input line: Categorize the following entry: `CC(=O)NCC(=O)N1CCC(Oc2ccc(-c3ncnc(Nc4ccc(N5CCN(C6COC6)CC5)cc4)n3)cc2C#N)CC1`
Output line: c3

Input line: Which class is correct for the following compound? `N#Cc1cc(-c2ncnc(Nc3ccc(N4CCN(C5COC5)CC4)c(OC(F)F)c3)n2)ccc1O[C@H]1CCN(C(=O)CO)C[C@H]1F`
Output line: c1

Input line: Band for `COc1cc(Nc2ncnc(-c3ccc(O[C@@H]4CCN(C(=O)CO)C4)c(C#N)c3)n2)ccc1N1CCN(C2COC2)CC1` ?
Output line: c2

Input line: Form field 'band' for `COC1CN(c2ccc(-c3ncnc(Nc4ccc(N5CCN(C6COC6)CC5)cc4)n3)cc2C#N)C1`
Output line: c3

Input line: Class label required: `N#Cc1cc(-c2ncnc(Nc3ccc(N4CCN(C5COC5)CC4)cc3)n2)ccc1O[C@H]1CCN(C(=O)c2cnc[nH]2)C[C@H]1F`
Output line: c1

====

Molecular target: TBK1 (Homo sapiens (Human), UniProt Q9UHD2)
Sequence (Q9UHD2 whole entry): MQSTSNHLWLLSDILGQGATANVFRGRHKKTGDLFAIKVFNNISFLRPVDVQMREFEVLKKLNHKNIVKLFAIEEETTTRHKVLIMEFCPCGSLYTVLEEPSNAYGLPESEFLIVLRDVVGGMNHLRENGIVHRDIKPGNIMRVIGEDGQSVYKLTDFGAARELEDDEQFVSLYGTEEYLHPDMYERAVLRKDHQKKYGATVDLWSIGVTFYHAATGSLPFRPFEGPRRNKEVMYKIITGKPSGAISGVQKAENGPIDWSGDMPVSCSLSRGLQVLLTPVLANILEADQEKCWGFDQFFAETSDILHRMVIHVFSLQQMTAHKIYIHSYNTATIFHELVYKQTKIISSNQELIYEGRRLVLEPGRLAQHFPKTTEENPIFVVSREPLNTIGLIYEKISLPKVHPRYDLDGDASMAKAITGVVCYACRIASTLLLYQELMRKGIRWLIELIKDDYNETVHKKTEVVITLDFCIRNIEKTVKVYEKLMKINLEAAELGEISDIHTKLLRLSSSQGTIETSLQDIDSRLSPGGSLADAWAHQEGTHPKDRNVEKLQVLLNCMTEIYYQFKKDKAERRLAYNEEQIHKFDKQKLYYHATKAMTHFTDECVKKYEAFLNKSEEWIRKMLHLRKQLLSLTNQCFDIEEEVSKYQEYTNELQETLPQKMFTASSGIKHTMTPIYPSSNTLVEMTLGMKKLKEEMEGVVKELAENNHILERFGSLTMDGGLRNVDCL
Assay: TBK1 TR-FRET enzymatic assay;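 also: phosphorylation of a biotinylated Ser/Thr peptide by purified full-length recombinant TBK1, read by TR-FRET after 240 min at 25 °C, IC50 is the geometric mean of at least four runs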
reported metric: pIC50
Units for pIC50: none; it is -log10 of a concentration expressed in mol/L.

Worked examples follow.
COc1cc(Nc2ncnc(-c3ccc(OC4CCOCC4)c(C#N)c3)n2)ccc1C1CCN(C2COC2)CC1 : 8.70
N#Cc1cc(-c2ncnc(Nc3ccc(N4CCN(C5COC5)CC4)cc3)n2)ccc1O[C@H]1CCN(C(=O)C2CCNC2=O)C[C@H]1F (stereo partly shown) : 7.80
N#Cc1cc(-c2ncnc(Nc3ccc(N4CCN(C5COC5)CC4)cc3)n2)ccc1O[C@H]1CCN(C(=O)[C@@H]2COC(=O)N2)CC1(F)F : 8.70
N#Cc1cc(-c2ncnc(Nc3ccc(N4CCO[C@@H](CO)C4)cc3)n2)ccc1OC1CCNCC1(F)F (stereo partly shown) : 8.30
CC1(C)C(=O)Nc2ccc(Nc3ncnc(-c4ccc(OC5CCOCC5)c(C#N)c4)n3)cc21 : 8.40
N#Cc1cc(-c2ncnc(Nc3ccc(N4CCN(C5COC5)CC4)cc3)n2)ccc1O[C@H]1CCN(C(=O)C(O)CO)C[C@H]1F (stereo partly shown) : 8.40

Consider now this further molecule.
Input line: Find the measured pIC50 of `Cc1cc(Nc2ncnc(-c3ccc(O[C@H]4CCN(C(=O)[C@H](C)O)C[C@H]4F)c(C#N)c3)n2)ccc1N1CCN(C2COC2)CC1` and report it.
Output line: 8.70

====

Molecular target: TBK1 (Homo sapiens (Human))
Assay: TBK1 TR-FRET enzymatic assay
pIC50: −log10 of the molar value.
Assign class by pIC50: not lower than 8 means Yes; lower than 8 means No.

Worked set:
N#Cc1cc(-c2ncnc(Nc3ccc(N4CCO[C@H](CO)C4)cc3)n2)ccc1O[C@H]1CCN(C(=O)CO)C[C@H]1F [Example 232] : Yes
N#Cc1cc(-c2ncnc(Nc3cnn(C(F)F)c3)n2)ccc1O[C@H]1CCNC[C@H]1F [Example 453] : No
CN1CCC(COc2ccc(-c3ncnc(Nc4ccc(N5CCN(C6COC6)CC5)cc4)n3)cc2C#N)CC1=O (stereo not shown) [Example 596] : No

Input line: Answer whether pIC50 of C[C@H](O)C(=O)N1CC[C@H](Oc2ccc(-c3ncnc(Nc4ccc5c(c4)CNC5)n3)cc2C#N)[C@H](F)C1 [Example 545] is greater than or equal to 8.
Output line: Yes

Input line: Decide: is the reported value of pIC50 for C[C@H](O)C(=O)N1CC[C@H](Oc2ccc(-c3ncnc(Nc4ccc(N5CCC6(CC5)COC6)cc4)n3)cc2C#N)[C@H](F)C1 [Example 365] equal to or greater than 8?
Output line: Yes

====

Molecular target: hJAK2 (Homo sapiens (Human), UniProt O60674)
Sequence (O60674 whole entry): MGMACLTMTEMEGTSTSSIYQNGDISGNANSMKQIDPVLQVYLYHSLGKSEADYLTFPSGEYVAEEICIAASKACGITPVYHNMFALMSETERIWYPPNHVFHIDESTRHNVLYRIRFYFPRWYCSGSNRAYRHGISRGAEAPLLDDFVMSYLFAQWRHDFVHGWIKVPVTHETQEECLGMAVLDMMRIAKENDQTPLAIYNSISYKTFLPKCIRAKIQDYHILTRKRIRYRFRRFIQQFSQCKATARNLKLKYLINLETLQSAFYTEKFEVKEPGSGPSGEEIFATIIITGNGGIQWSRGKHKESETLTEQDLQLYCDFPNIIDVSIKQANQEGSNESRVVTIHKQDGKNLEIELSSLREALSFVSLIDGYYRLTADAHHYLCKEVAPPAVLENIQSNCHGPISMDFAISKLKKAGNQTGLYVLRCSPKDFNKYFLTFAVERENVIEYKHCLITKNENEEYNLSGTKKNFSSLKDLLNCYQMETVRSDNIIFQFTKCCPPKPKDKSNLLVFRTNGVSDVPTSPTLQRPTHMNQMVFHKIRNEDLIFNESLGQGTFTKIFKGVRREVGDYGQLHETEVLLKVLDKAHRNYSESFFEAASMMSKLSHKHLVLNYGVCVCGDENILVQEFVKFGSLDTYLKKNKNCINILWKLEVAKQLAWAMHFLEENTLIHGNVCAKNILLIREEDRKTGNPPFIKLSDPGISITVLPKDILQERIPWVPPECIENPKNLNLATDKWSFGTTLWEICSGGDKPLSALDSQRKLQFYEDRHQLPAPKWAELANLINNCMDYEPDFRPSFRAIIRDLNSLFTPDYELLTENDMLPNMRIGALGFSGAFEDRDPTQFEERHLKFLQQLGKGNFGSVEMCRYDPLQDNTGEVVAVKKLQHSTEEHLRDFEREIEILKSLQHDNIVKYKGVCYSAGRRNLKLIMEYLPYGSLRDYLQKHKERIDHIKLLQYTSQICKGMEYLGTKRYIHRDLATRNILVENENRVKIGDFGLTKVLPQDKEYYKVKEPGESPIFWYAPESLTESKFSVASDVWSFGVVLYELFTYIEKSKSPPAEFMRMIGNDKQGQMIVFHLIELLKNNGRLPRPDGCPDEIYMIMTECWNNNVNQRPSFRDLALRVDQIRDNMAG
reported metric: IC50 (µM)
# value in µM; strip the unit string

A selection of reference data follows.
C[C@H]1CN(C2COC2)CCN1c1ccc(Nc2ncnc(-c3ccc(O[C@H]4CCN(C(=O)CCO)CC4(F)F)c(C#N)c3)n2)cc1 : 0.151
C[C@H](O)C(=O)N1CCC(Oc2ccc(-c3ncnc(Nc4ccc(N5CCN(C6COC6)CC5)cc4)n3)cc2C#N)C(F)(F)C1 (stereo partly shown) : 0.168
N#Cc1cc(-c2ncnc(Nc3ccc(N4CCN(C5COC5)CC4)c(F)c3)n2)ccc1O[C@H]1CCN(C(=O)[C@@H]2CCC(=O)N2)C[C@H]1F : 0.305
Cc1n[nH]c(C(=O)N2CC[C@H](Oc3ccc(-c4ncnc(Nc5ccc(N6CCN(C7COC7)CC6)cc5)n4)cc3C#N)[C@H](F)C2)n1 : 0.09
CC1(C)CN(C(=O)CC#N)C[C@@H](F)[C@H]1Oc1ccc(-c2ncnc(Nc3ccc(N4CCN(C5COC5)CC4)cc3)n2)cc1C#N : 0.048

Input line: Tell me its IC50 on hJAK2 (Homo sapiens (Human), UniProt O60674): N#Cc1cc(-c2ncnc(Nc3ccc(N4CCN(C5COC5)CC4)cc3)n2)ccc1O[C@H]1CCN(C(=O)C2CC(O)C2)C[C@H]1F (stereo partly shown)
Output line: 0.75

Input line: Report the value of IC50 obtained on hJAK2 (Homo sapiens (Human), UniProt O60674) for `CS(=O)(=O)N1CCN(c2ccc(Nc3ncnc(-c4ccc(OC5CCOCC5)c(C#N)c4)n3)cc2)CC1` .
Output line: 0.345

Input line: Lab note: hJAK2 (Homo sapiens (Human), UniProt O60674) assay, enter IC50 for `C[C@H]1C[C@@H](Oc2ccc(-c3ncnc(Nc4ccc(N5CCN(C6COC6)CC5)cc4)n3)cc2C#N)CCN1C(=O)CC#N` here
Output line: 0.183

Input line: // output IC50; input N#Cc1cc(-c2ncnc(Nc3ccc(N4CCN(C5COC5)CC4)cc3)n2)ccc1O[C@H]1CN(C(=O)CO)CC1(F)F (single isomer, unassigned) ; system hJAK2 (Homo sapiens (Human), UniProt O60674)
Output line: 0.09

Input line: Please indicate recorded IC50 of `N#Cc1cc(-c2ncnc(Nc3ccc(N4CCN(C5COC5)CC4)cc3)n2)ccc1O[C@H]1CCN(C(=O)c2ccn[nH]2)CC1(F)F` measured with hJAK2 (Homo sapiens (Human), UniProt O60674).
Output line: 0.155

====

Target: TBK1 (Homo sapiens (Human))
Experiment: TBK1 TR-FRET enzymatic assay
reported metric: IC50 (nM)
Supply the numeric figure in nM, leaving out any unit text.

Examples with answers:
N#Cc1cc(-c2ncnc(Nc3ccc(N4CCN(C5COC5)CC4)cc3)n2)ccc1OCCc1cnc2ncnn2c1 : 37
N#Cc1cc(-c2ncnc(Nc3ccc(N4CCN(C5COC5)CC4)cc3)n2)ccc1O[C@H]1CCN(C(=O)c2cn[nH]c2)C[C@H]1F : 2
CC(C)NC(=O)c1ccc(Nc2ncnc(-c3ccc(OC4CCOCC4)c(C#N)c3)n2)cc1 : 3

Input line: Answer with IC50 of `C[C@H](O)C(=O)N1CC[C@H](Oc2ccc(-c3ncnc(Nc4cnn(C5COC5)c4)n3)cc2C#N)[C@H](F)C1` measured for TBK1 (Homo sapiens (Human)).
Output line: 7

Input line: Quote IC50 with test system TBK1 (Homo sapiens (Human)) for `C[C@H](O)C(=O)N1CC[C@H](Oc2ccc(-c3ncnc(Nc4ccc([C@H]5CCCN5)cc4)n3)cc2C#N)[C@H](F)C1`
Output line: 4

Input line: Lab note: TBK1 (Homo sapiens (Human)) assay, enter IC50 for `N#Cc1cc(-c2ncnc(Nc3ccc(N4CCN(C5COC5)CC4)cc3)n2)ccc1O[C@H]1CCN(C(=O)CCO)C[C@H]1F` here
Output line: 4

Input line: Tell me IC50 of `COc1cc(Nc2ncnc(-c3ccc(OC4CCOCC4)c(C#N)c3)n2)ccc1OC(F)F` when tested on TBK1 (Homo sapiens (Human)).
Output line: 9
